- tested_target: Sodium channel alpha subunits; brain (Types I, II, III) (Rattus norvegicus, UniProt P04775+P04774+P08104)
- procedure_details: In vitro inhibition of [3H]-BTX-B binding to sodium channels in rat brain synapto-neurosomes
- Assay type: tissue-based
Recorded log10 IC50, one value per entry.
readout_type: log10 IC50 (log10 of the value in µM)

compound: O=C1NC(=O)C(c2ccccc2)(c2ccccc2)N1
measurement: 1.60
--
compound: CCC1(c2ccccc2)OC(=O)N(C)C1=O (centres undefined)
measurement: 2.70
--
compound: CCOC(=O)N1CCCC(OC)(c2ccccc2)C1=O (centres undefined)
measurement: 2.77
--
compound: NC(=O)N1c2ccccc2C=Cc2ccccc21 [CARBAMAZEPINE]
measurement: 2.12
--
compound: CCOC(=O)N1CCCCC(O)(c2ccccc2)C1=O (centres undefined)
measurement: 2.81
--
compound: O=C1O[C@]2(c3ccccc3)CCCCCN1C2=O
measurement: 2.20
--
compound: O=C1O[C@@]2(c3ccccc3)CCCCN1C2=O
measurement: 2.58
